biological target: equine FcRn (large alpha subunit p51) / equine beta-2-microglobulin complex, biotinylated (equine) (UniProt P30441); assay: SPR (Biacore), pH 6
Some binders, each annotated with its measured pKd.
Recall that pKd is obtained by taking minus log10 of the concentration measured in molar.

Examples from the recorded data:
binder	pKd
equine IgG1 Q311A (antibody, part only; not given: variable domains, not shown: another chain or arm of the molecule) constant: ASTTAPKVFALAPGCGTTSDSTVALGCLVSGYFPEPVKVSWNSGSLTSGVHTFPSVLQSSGFYSLSSMVTVPASTWTSETYICNVVHAASNFKVDKRIEPIPDNHQKVCDMSKCPKCPAPELLGGPSVFIFPPNPKDTLMITRTPEVTCVVVDVSQENPDVKFNWYMDGVEVRTATTRPKEEQFNSTYRVVSVLRIQHADWLSGKEFKCKVNNQALPQPIERTITKTKGRSQEPQVYVLAPHPDELSKSKVSVTCLVKDFYPPEINIEWQSNGQPELETKYSTTQAQQDSDGSYFLYSKLSVDRNRWQQGTTFTCGVMHEALHNHYTQKNVSKNPGK	7.68
equine IgG1 G426N (antibody, part only; not given: variable domains, not shown: another chain or arm of the molecule) constant: ASTTAPKVFALAPGCGTTSDSTVALGCLVSGYFPEPVKVSWNSGSLTSGVHTFPSVLQSSGFYSLSSMVTVPASTWTSETYICNVVHAASNFKVDKRIEPIPDNHQKVCDMSKCPKCPAPELLGGPSVFIFPPNPKDTLMITRTPEVTCVVVDVSQENPDVKFNWYMDGVEVRTATTRPKEEQFNSTYRVVSVLRIQHQDWLSGKEFKCKVNNQALPQPIERTITKTKGRSQEPQVYVLAPHPDELSKSKVSVTCLVKDFYPPEINIEWQSNGQPELETKYSTTQAQQDSDGSYFLYSKLSVDRNRWQQGTTFTCNVMHEALHNHYTQKNVSKNPGK	7.99
equine IgG4 M428L (antibody, part only; not given: Variable domains, not shown: another chain or arm of the molecule) constant: ASTTAPKVFPLASHSAATSGSTVALGCLVSSYFPEPVTVSWNSGALTSGVHTFPSVLQSSGLYSLSSMVTVPASSLKSQTYICNVAHPASSTKVDKKIVIKECNGGCPAECLQVGPSVFIFPPKPKDVLMISRTPTVTCVVVDVGHDFPDVQFNWYVDGVETHTATTEPKQEQFNSTYRVVSVLPIQHKDWLSGKEFKCKVNNKALPAPVERTISKPTGQPREPQVYVLAPHRDELSKNKVSVTCLVKDFYPTDIDIEWKSNGQPEPETKYSTTPAQLDSDGSYFLYSKLTVETNRWQQGTTFTCAVLHEALHNHYTEKSVSKSPGK	7.76

Input equine IgG4 T286L (antibody, part only; not given: variable domains, not shown: another chain or arm of the molecule) constant: ASTTAPKVFPLASHSAATSGSTVALGCLVSSYFPEPVTVSWNSGALTSGVHTFPSVLQSSGLYSLSSMVTVPASSLKSQTYICNVAHPASSTKVDKKIVIKECNGGCPAECLQVGPSVFIFPPKPKDVLMISRTPTVTCVVVDVGHDFPDVQFNWYVDGVETHLATTEPKQEQFNSTYRVVSVLPIQHKDWLSGKEFKCKVNNKALPAPVERTISKPTGQPREPQVYVLAPHRDELSKNKVSVTCLVKDFYPTDIDIEWKSNGQPEPETKYSTTPAQLDSDGSYFLYSKLTVETNRWQQGTTFTCAVMHEALHNHYTEKSVSKSPGK . Output pKd: 7.76
